SYSTEM_UNDER_TEST: AmpC (PAE) (Pseudomonas aeruginosa)
Sequence (P24735 27-397): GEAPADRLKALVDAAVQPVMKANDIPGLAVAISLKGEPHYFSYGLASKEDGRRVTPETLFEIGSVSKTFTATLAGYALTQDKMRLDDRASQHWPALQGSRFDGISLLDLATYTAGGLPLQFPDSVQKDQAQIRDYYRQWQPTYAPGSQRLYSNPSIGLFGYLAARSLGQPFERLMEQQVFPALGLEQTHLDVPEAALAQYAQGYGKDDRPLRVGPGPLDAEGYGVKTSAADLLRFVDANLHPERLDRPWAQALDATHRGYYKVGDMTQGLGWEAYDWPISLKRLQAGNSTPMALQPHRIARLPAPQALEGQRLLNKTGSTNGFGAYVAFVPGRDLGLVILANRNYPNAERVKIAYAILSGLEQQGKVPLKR
PROTOCOL_DESCRIPTION: biochemical
MEASUREMENT_KIND: pIC50
pIC50 (log units): -log10 of the concentration in mol/L.

O=C1N2CC(n3ccc(F)n3)=CC(C2)N1OS(=O)(=O)[O-].[Na+] (stereo not drawn) : 7.37
Nc1ncc(C(=O)Nc2ccn(C3=CC4CN(C3)C(=O)N4OS(=O)(=O)[O-])n2)s1.[Na+] (stereo not drawn) : 8.06
O=C(Nc1ccn(C2=CC3CN(C2)C(=O)N3OS(=O)(=O)O)n1)c1cncs1 (stereo not drawn) : 7.24

Param request: pIC50 | system AmpC (PAE) (Pseudomonas aeruginosa) | item O=C1N2CC(n3cncn3)=CC(C2)N1OS(=O)(=O)[O-].[Na+] (stereo not drawn)
6.85

Report measured pIC50 on AmpC (PAE) (Pseudomonas aeruginosa); entry: NC(=O)c1ccn(C2=CC3CN(C2)C(=O)N3OS(=O)(=O)[O-])n1.[Na+] (stereo not drawn)
6.77

Lab note: AmpC (PAE) (Pseudomonas aeruginosa) assay, enter pIC50 for COc1cnn(C2=CC3CN(C2)C(=O)N3OS(=O)(=O)[O-])c1.[Na+] (stereo not drawn) here
7.54

====

System: K. pneumoniae BAA-1898
PROTOCOL_DESCRIPTION: MIC of compound alone, broth microdilution
Type: cell-based
EXPERIMENTAL_PARAMETERS: strain BAA-1898; compound alone
Protocol: Log phase bacterial suspensions were adjusted to a final density of 5×10^5 cfu/mL in cation-adjusted Mueller-Hinton broth (Becton-Dickinson) and added to each well (98 μL). Microplates were incubated for 16-20 h at 35° C. in ambient air. The MIC of the compounds was defined as the lowest concentration of said compounds that prevented bacterial growth as read by visual inspection.
MIC compounds of the invention alone values, listed per item

See these solved cases before continuing.
O=C1N2CC(n3cc(N4CCOCC4)cn3)=CC(C2)N1OS(=O)(=O)[O-].[Na+] (stereo not drawn) : >32 µg/mL
CN(C)Cc1cn(C2=CC3CN(C2)C(=O)N3OS(=O)(=O)[O-])nn1.[Na+] (stereo not drawn) : >32 µg/mL

# return MIC compounds of the invention alone of NC(=O)c1nn(C2=CC3CN(C2)C(=O)N3OS(=O)(=O)[O-])cc1F.[Na+] (stereo not drawn) (system: K. pneumoniae BAA-1898)
16 µg/mL

====

SYSTEM_UNDER_TEST: KPC-2 (Klebsiella pneumoniae)
EXPERIMENTAL_PARAMETERS: read-out: IC50 β-lactamase KPC-2; class (A); nitrocefin 200 μM, 30-min pre-incubation, enzyme 1 nM
MEASUREMENT_KIND: IC50
Remember to follow the number with its unit.

Example results:
CC(=O)Nc1ccn(C2=CC3CN(C2)C(=O)N3OS(=O)(=O)O)n1.CCN(CC)CC (stereo not drawn) : 0.011 µM
CN(C)Cc1cn(C2=CC3CN(C2)C(=O)N3OS(=O)(=O)[O-])nn1.[Na+] (stereo not drawn) : 0.012 µM

Report measured IC50 on KPC-2 (Klebsiella pneumoniae); entry: O=C(O)C(F)(F)F.O=C1N2CC(n3ccc(CNc4nccs4)n3)=CC(C2)N1OS(=O)(=O)[O-].[Na+] (stereo not drawn)
0.013 µM

====

IC50 values for the molecules below.
SYSTEM_UNDER_TEST: KPC-2 (Klebsiella pneumoniae, UniProt Q9F663)
Sequence (Q9F663 25-293, looked up, species assumed): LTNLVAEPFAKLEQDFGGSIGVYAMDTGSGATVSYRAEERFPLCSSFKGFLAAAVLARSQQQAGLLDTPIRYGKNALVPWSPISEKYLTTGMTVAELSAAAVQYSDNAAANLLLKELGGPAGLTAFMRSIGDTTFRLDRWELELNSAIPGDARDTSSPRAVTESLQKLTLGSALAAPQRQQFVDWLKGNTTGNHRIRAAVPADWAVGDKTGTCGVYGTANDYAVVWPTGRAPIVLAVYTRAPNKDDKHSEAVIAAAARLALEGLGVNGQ
Give a bare numeral; the unit nM is implied.

Example cases with answers are listed next.
O=C(Nc1ncco1)c1ccn(C2=CC3CN(C2)C(=O)N3OS(=O)(=O)[O-])n1.[Na+] (centres unmarked) : 2.9
O=C(Nc1ccccn1)c1ccn(C2=CC3CN(C2)C(=O)N3OS(=O)(=O)[O-])n1.[Na+] (centres unmarked) : 2.6
O=C1N2CC(n3nccc3CCO)=CC(C2)N1OS(=O)(=O)[O-].[Na+] (centres unmarked) : 300
O=C(N[C@@H]1CCNC1)c1ccn(C2=CC3CN(C2)C(=O)N3OS(=O)(=O)O)n1 (some centres unmarked) : 7.9
Nc1ncc(C(=O)Nc2ccn(C3=CC4CN(C3)C(=O)N4OS(=O)(=O)[O-])n2)s1.[Na+] (centres unmarked) : 2.5
NC(=O)CONC(=O)c1ccn(C2=CC3CN(C2)C(=O)N3OS(=O)(=O)[O-])n1.[Na+] (centres unmarked) : 11

Provide measured IC50 value, entry: O=C(c1ccn(C2=CC3CN(C2)C(=O)N3OS(=O)(=O)[O-])n1)N1CCOCC1.[Na+] (centres unmarked) [Example 31, sulfate]
11

Annotate the molecule O=C(NC1CCNCC1)c1ccn(C2=CC3CN(C2)C(=O)N3OS(=O)(=O)O)n1 (centres unmarked) with its measured IC50.
6.9

# return recorded IC50 for input O=C(Nc1nncs1)c1ccn(C2=CC3CN(C2)C(=O)N3OS(=O)(=O)[O-])n1.[Na+] (centres unmarked)
8.5

Return reported IC50. Input molecule: COc1cnn(C2=CC3CN(C2)C(=O)N3OS(=O)(=O)[O-])c1.[Na+] (centres unmarked)
22

Give the reported IC50 for this molecule. O=C(N[C@H]1CCNC1)c1ccn(C2=CC3CN(C2)C(=O)N3OS(=O)(=O)O)n1 (some centres unmarked)
10
